The measurements presented in this section are drawn from ChEMBL document CHEMBL1144697.

- SUBJECT_OF_TEST: Cyclin-dependent kinase 5/CDK5 activator 1 (Homo sapiens, UniProt Q00535)
- Sequence (Q00535 whole entry): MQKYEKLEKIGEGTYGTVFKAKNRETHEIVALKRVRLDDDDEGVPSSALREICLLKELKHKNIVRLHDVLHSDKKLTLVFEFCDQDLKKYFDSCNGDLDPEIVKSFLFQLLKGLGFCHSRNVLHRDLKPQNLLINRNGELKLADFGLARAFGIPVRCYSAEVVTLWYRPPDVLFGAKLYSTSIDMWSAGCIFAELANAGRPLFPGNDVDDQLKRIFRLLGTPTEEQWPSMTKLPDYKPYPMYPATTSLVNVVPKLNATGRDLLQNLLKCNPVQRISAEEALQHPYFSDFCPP
- Sequence (Q15078 whole entry, further chain): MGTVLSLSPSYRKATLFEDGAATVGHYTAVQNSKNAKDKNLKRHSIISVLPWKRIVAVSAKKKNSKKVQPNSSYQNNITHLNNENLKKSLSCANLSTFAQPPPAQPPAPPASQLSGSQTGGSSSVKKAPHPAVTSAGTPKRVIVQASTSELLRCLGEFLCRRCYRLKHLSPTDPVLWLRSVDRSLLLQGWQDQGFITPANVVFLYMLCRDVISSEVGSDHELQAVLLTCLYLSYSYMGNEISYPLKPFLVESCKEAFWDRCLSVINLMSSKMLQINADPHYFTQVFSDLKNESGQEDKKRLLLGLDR
- METHOD_NOTES: Inhibition of recombinant CDK5/p25 expressed in Escherichia coli
MEASURED_METRIC: IC50 (µM)

N#Cc1ccc2[nH]c3c(c2c1)CC(=O)Nc1ccc(Br)nc1-3; 10

P: O=C1Cc2c([nH]c3ccc(F)cc23)-c2ncccc2N1
Q: O=C1Cc2c([nH]c3ccccc23)-c2ncccc2N1
R: O=C1Cc2c([nH]c3ccc(C(F)(F)F)cc23)-c2cnccc2N1
S: N#Cc1ccc2[nH]c3c(c2c1)CC(=O)Nc1cccnc1-3
Lookup: Returns the items ordered by IC50, from maximum to minimum. Please list the labels in the order you were asked to rank them.
Found: Q, P, S, R
